Attribute: self-splicing fitness (ln)
Protocol summary: self-splicing fitness, log relative to wild type (ln ratio); higher = more splicing; Tetrahymena group I intron in knt gene, E. coli kanamycin selection, DiMSum; sequences stand for … in CUCUCU…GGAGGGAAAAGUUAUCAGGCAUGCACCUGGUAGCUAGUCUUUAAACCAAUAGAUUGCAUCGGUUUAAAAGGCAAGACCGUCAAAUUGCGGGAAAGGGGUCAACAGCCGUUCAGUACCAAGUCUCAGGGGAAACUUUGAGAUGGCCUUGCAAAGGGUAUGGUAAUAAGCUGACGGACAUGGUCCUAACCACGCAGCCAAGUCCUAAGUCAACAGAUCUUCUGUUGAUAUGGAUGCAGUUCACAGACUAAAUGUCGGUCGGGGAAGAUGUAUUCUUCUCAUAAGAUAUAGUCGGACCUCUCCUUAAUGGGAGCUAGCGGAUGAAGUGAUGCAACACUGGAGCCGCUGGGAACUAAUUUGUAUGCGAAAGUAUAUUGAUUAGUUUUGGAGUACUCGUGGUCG;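 also: selection with 25 µg/mL kanamycin versus none on LB agar overnight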
Condition context: 30 °C

{"columns": ["Monomer sequence", "self-splicing fitness (ln)"],
 "data": [
  ["UCGAAGCAAUAUUACGAGAC", -3.11],
  ["CCUCAGCAAUAUUACGAAGG", -3.6],
  ["UAGGAGCAAUAUUACGGGAG", -2.69],
  ["CAGUAGCAAUAUUACGCGGU", -2.74],
  ["AAUGAGCAAUAUUACGUACG", -3],
  ["UUUCAGCAAUAUUACGUGCG", -1.27],
  ["AGACAGCAAUAUUACGGAAU", -3.47],
  ["ACCUAGCAAUAUUACGUGCC", -1.63],
  ["GCACAGCAAUAUUACGUAAC", -1.83],
  ["GCUUAGCAAUAUUACGCUUA", -0.849],
  ["UUGCAGCAAUAUUACGAGCU", -2.6],
  ["ACUUAGCAAUAUUACGCCUG", -1.12],
  ["GUAUAGCAAUAUUACGGUGG", -2.54],
  ["ACGUAGCAAUAUUACGUACC", -1.4],
  ["CACAAGCAAUAUUACGGUAU", -3.8],
  ["CCAUAGCAAUAUUACGAUUU", -3.31],
  ["CCUGAGCAAUAUUACGUCCA", -1.86],
  ["UGUGAGCAAUAUUACGAAUC", -2.91],
  ["UGAGAGCAAUAUUACGAGCC", -1.9],
  ["GAGUAGCAAUAUUACGCGUA", -2.66],
  ["CUUUAGCAAUAUUACGAGAG", -4.26],
  ["CAUCAGCAAUAUUACGGCAA", -3.37],
  ["AACCAGCAAUAUUACGUUGU", -2.68],
  ["AUCAAGCAAUAUUACGUUAU", -2.29],
  ["UUACAGCAAUAUUACGAAAC", -2.85],
  ["CCCAAGCAAUAUUACGUCUU", -3.41],
  ["ACCAAGCAAUAUUACGCCGA", -2.23],
  ["UAUCAGCAAUAUUACGGCCA", 0.201],
  ["UGUCAGCAAUAUUACGGUGG", -2.14],
  ["UCAGAGCAAUAUUACGUUCU", -3.86],
  ["AACGAGCAAUAUUACGCUUG", -2.67],
  ["GCCGAGCAAUAUUACGGUGC", -2.75],
  ["UCUAAGCAAUAUUACGCUAU", -3.62],
  ["GACAAGCAAUAUUACGAGAC", -2.95],
  ["CUCUAGCAAUAUUACGUAGC", -3.51],
  ["CUACAGCAAUAUUACGGGUA", -3.25],
  ["UCAAAGCAAUAUUACGCUUC", -4.01],
  ["CACGAGCAAUAUUACGAUGC", -3.47],
  ["AAGCAGCAAUAUUACGAACA", -1.56],
  ["GUUGAGCAAUAUUACGAGCA", -2.68],
  ["AUAGAGCAAUAUUACGACCG", -2.9],
  ["AUCAAGCAAUAUUACGUCCC", -0.841],
  ["AGUGAGCAAUAUUACGCGUU", -3.04],
  ["UAUUAGCAAUAUUACGGCGA", -0.206],
  ["UUCAAGCAAUAUUACGAUAA", -0.317],
  ["GAAAAGCAAUAUUACGGCAU", -0.258],
  ["GCUCAGCAAUAUUACGUGCG", -1.32],
  ["GAUCAGCAAUAUUACGGCGC", -0.52],
  ["AACAAGCAAUAUUACGUGUA", -1.55],
  ["AACGAGCAAUAUUACGGCUU", -0.938],
  ["UACCAGCAAUAUUACGGACU", -0.102],
  ["UUCUAGCAAUAUUACGCUAG", -3.41],
  ["CACUAGCAAUAUUACGCGUG", -3.99],
  ["ACACAGCAAUAUUACGCAGU", -3.84],
  ["GACAAGCAAUAUUACGUUGC", -3.63],
  ["CGACAGCAAUAUUACGGUUC", -2.59],
  ["ACCUAGCAAUAUUACGAUUG", -3.2],
  ["AAUAAGCAAUAUUACGGUAG", -3.77],
  ["CCGAAGCAAUAUUACGGGUU", -4.22],
  ["GCAUAGCAAUAUUACGUUUC", -4.77],
  ["CUAAAGCAAUAUUACGCAUA", -3.66],
  ["GUUUAGCAAUAUUACGACCC", -0.68],
  ["GUAGAGCAAUAUUACGAGAC", -3.02],
  ["GUAAAGCAAUAUUACGUCAC", -2.16],
  ["UUACAGCAAUAUUACGGCGG", -0.579],
  ["UCUGAGCAAUAUUACGUUGU", -4.12],
  ["UGGAAGCAAUAUUACGGCCC", -0.223]
]}

###

Protocol summary: self-splicing fitness, log relative to wild type (ln ratio); higher = more splicing; Tetrahymena group I intron in knt gene, E. coli kanamycin selection, DiMSum; sequences stand for … in CUCUCU…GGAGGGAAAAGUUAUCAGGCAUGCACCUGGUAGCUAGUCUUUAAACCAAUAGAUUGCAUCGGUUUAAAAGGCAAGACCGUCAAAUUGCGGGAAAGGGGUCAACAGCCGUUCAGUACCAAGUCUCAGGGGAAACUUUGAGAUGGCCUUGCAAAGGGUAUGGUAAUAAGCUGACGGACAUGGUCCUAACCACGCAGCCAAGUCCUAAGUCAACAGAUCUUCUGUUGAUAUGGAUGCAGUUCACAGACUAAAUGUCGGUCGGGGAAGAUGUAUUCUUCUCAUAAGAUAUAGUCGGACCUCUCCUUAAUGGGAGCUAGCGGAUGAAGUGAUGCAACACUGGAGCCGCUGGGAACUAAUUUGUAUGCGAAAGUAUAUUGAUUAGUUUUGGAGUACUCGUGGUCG
Condition context: 37 °C

{"columns": ["Monomer sequence", "self-splicing fitness (ln)"],
 "data": [
  ["UAUGAGCAAUAUUACGCCAG", -1.21],
  ["GGGUAGCAAUAUUACGGCGG", -2.12],
  ["UGGCAGCAAUAUUACGUCUA", 0.66],
  ["UUAAAGCAAUAUUACGGUAG", 0.29],
  ["CAUAAGCAAUAUUACGUCGA", -2.86],
  ["GACGAGCAAUAUUACGAGGC", -2.85],
  ["CGUGAGCAAUAUUACGGGGU", -3.32],
  ["AUUCAGCAAUAUUACGGUGA", -0.526],
  ["CCUCAGCAAUAUUACGGAUG", -0.682],
  ["UAAGAGCAAUAUUACGGUUA", -0.602],
  ["CUCAAGCAAUAUUACGAAAA", -2.65],
  ["GCGUAGCAAUAUUACGAACC", -1.63],
  ["AGUCAGCAAUAUUACGCAGG", -2.92],
  ["GACCAGCAAUAUUACGGUCA", -0.935],
  ["GACCAGCAAUAUUACGAAGA", -0.589],
  ["AUGUAGCAAUAUUACGGGAG", -2.64],
  ["GUCCAGCAAUAUUACGUAGA", -0.201],
  ["AACUAGCAAUAUUACGAUAG", -1.77],
  ["AUCCAGCAAUAUUACGCCAG", -2.6],
  ["CUCAAGCAAUAUUACGACAU", -1.9],
  ["CUCCAGCAAUAUUACGGCGU", -3.4],
  ["CACAAGCAAUAUUACGAAAC", -1.91],
  ["CUAUAGCAAUAUUACGGAAG", -0.957],
  ["GCCCAGCAAUAUUACGGGAU", -1.25],
  ["UUAAAGCAAUAUUACGUGAC", -1.91],
  ["AAUAAGCAAUAUUACGGGGU", -3.11],
  ["UUGAAGCAAUAUUACGAUAG", 0.398],
  ["CCAGAGCAAUAUUACGUUGC", -2.11],
  ["AUGUAGCAAUAUUACGAGUA", -1.72],
  ["UAAUAGCAAUAUUACGAUGU", -2.48],
  ["GUGAAGCAAUAUUACGGGAC", -0.623],
  ["AGCAAGCAAUAUUACGGGGC", -2.89],
  ["UAAGAGCAAUAUUACGUGGU", -2.57],
  ["CGAUAGCAAUAUUACGGGAU", -2.86]
]}
